Target: recombinant human CYP11B1 (Homo sapiens, UniProt P15538)
Construct: enzyme-enriched microsomal fraction of the lysate
Sequence (P15538 25-503): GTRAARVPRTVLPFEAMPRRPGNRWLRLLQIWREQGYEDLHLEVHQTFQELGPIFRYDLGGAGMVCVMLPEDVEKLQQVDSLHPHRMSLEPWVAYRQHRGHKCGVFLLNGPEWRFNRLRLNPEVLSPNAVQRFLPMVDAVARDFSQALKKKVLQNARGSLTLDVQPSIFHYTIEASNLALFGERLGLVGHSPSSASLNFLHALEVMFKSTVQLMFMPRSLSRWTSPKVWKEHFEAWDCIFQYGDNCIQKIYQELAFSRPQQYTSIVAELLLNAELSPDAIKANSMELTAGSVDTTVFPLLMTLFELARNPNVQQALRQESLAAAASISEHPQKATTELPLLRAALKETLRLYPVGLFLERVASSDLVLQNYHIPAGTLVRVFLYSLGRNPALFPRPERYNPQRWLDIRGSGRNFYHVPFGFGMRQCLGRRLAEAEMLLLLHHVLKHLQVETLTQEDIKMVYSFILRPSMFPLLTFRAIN
Assay: CYP11B1 enzyme assay with enzyme enriched microsomes, cortisol measured by LC-MS
Details: microsomes from V79-4 cells; 11-deoxycortisol at Km; read-out: hCYP11B1 IC50
pIC50: −log10 of the molar value.
ENDPOINT LABEL: pIC50

{"columns": ["CHEMICAL STRUCTURE", "REPORTED VALUE"],
 "data": [
  ["CS(=O)(=O)Nc1ccc2c(c1)ncn2-c1nc2ccc(C#N)cc2n1C1CC1", "< 5.00"],
  ["CS(=O)(=O)N(c1ccc2c(c1)ncn2-c1nc2ccc(F)c(F)c2n1C1CC1)S(C)(=O)=O", "< 5.00"],
  ["Fc1cc2nc(-n3cnc4cc(OC(F)F)ccc43)n(C3CC3)c2cc1F", "6.00 to 7.00"]
]}

Request: Endpoint output: pIC50 of Fc1cc2ncn(-c3nc4cc(F)c(F)cc4n3C3CC3)c2cc1F . Value?
Response: 5.00 to 6.00

----------
Target: recombinant human CYP11B2 (Homo sapiens)
Construct: enzyme-enriched microsomal fraction of the lysate
Sequence (P19099 25-503): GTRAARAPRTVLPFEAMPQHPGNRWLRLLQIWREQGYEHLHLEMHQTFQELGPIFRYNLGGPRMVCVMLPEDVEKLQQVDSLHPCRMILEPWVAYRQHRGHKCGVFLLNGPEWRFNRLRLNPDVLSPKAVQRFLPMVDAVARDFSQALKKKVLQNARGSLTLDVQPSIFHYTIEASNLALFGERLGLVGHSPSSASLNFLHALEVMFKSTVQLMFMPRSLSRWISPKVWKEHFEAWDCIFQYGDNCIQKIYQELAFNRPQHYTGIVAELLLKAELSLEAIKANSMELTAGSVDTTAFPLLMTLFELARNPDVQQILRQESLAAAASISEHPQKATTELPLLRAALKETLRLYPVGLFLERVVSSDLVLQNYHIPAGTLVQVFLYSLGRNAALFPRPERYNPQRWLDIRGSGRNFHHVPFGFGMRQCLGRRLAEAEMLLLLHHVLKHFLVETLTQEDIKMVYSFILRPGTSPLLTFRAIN
Test: CYP11B2 enzyme assay with enzyme enriched microsomes, aldosterone measured by LC-MS
Conditions: microsomes from V79-4 cells; 11-deoxycorticosterone at Km; read-out: hCYP11B2 IC50
Procedure: V79-4 cells expressing recombinant andrenodoxin and andrenodoxin reductase with either recombinant human CYP11B2 or CYP11B1 were prepared according to methods previously described (LaSala et al 2009 Anal Bioch 394:56-61). […] The substrate Km values were experimentally determined for 11-deoxycorticosterone (CYP11B2 substrate) and 11-deoxycortisol (CYP11B1 substrate). […] Products of the enzyme reactions, aldosterone for CYP11B2 or cortisol for CYP11B1, were measured by LC-MS. […]
pIC50: −log10 of the molar value.
Below is a list of entries, each paired with its recorded pIC50 value.

{"columns": ["CHEMICAL STRUCTURE", "ENDPOINT LABEL", "REPORTED VALUE"],
 "data": [
  ["N#Cc1ccc2nc(-n3cnc4cc(F)c(F)cc43)n(C3CC3)c2c1", "pIC50", "7.00 to 9.00"],
  ["N#Cc1ccc2c(c1)ncn2-c1nc2cc(F)c(F)cc2n1C1CC1", "pIC50", "7.00 to 9.00"],
  ["Fc1cc2nc(-n3cnc4cc(OC(F)F)ccc43)n(C3CC3)c2cc1F", "pIC50", "7.00 to 9.00"],
  ["CS(=O)(=O)Nc1ccc2ncn(-c3nc4ccc(F)c(F)c4n3C3CC3)c2c1", "pIC50", "5.00 to 6.00"],
  ["Fc1ccc2c(c1)ncn2-c1nc2ccc(F)cc2n1C1CC1", "pIC50", "7.00 to 9.00"],
  ["Fc1ccc2nc(-n3cnc4ccc(OC(F)(F)F)cc43)n(C3CC3)c2c1", "pIC50", "6.00 to 7.00"]
]}

Request: # query: pIC50 of entry N#Cc1ccc2ncn(-c3nc4ccc(F)cc4n3C3CC3)c2c1
Response: 6.00 to 7.00

----------
Target: recombinant human CYP11B1 (Homo sapiens)
Construct: enzyme-enriched microsomal fraction of the lysate
Sequence (P15538 25-503): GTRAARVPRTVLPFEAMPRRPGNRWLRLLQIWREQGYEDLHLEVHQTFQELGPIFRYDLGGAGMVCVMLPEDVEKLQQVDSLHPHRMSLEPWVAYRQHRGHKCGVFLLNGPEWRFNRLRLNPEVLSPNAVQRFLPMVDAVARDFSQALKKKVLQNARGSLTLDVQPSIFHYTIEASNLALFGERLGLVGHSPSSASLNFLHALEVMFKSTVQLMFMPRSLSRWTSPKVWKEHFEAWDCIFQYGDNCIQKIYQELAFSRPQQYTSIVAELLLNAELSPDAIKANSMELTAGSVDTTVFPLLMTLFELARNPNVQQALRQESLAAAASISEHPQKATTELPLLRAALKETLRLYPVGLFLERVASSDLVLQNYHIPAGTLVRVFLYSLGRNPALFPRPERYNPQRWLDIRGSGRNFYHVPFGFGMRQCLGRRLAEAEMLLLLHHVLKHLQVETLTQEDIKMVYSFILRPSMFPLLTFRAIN
Test: CYP11B1 enzyme assay with enzyme enriched microsomes, cortisol measured by LC-MS
Details: microsomes from V79-4 cells; 11-deoxycortisol at Km; read-out: hCYP11B1 IC50
pIC50: −log10 of the molar value.
The following molecules are listed with their measured pIC50 values.

Request: Recorded pIC50 for Fc1ccc2nc(-n3cnc4ccccc43)n(C3CC3)c2c1 , please?
Response: 6.00 to 7.00

Request: Given O=C(O)c1cc2c(cn1)ncn2-c1nc2cc(F)c(F)cc2n1C1CC1 , state its recorded pIC50.
Response: < 5.00

Request: Name the recorded pIC50 for CCc1ccc2ncn(-c3nc4ccc(F)cc4n3C3CC3)c2c1 .
Response: 5.00 to 6.00

Request: Would you kindly share the measured pIC50 for N#Cc1ccc2nc(-n3cnc4cc(OC(F)F)ccc43)n(C3CC3)c2c1 ?
Response: 6.00 to 7.00

Request: Consider the molecule N#Cc1ccc2nc(-n3cnc4ccncc43)n(C3CC3)c2c1 and give its measured pIC50.
Response: < 5.00

Request: Give its pIC50 value. Item: N#Cc1ccc2nc(-n3cnc4cc(F)c(F)cc43)n(C3CC3)c2c1
Response: 5.00 to 6.00

Request: Can you look up the measured pIC50 of N#Cc1ccc2c(c1)ncn2-c1nc2ccc(F)cc2n1C1CC1 for me?
Response: 5.00 to 6.00

Request: Look at this molecule and give its reported pIC50. Cc1ccc2ncn(-c3nc4ccc(F)cc4n3C3CC3)c2c1
Response: 6.00 to 7.00

Request: # input molecule: Fc1cc2nc(-n3cnc4ccc(OC(F)F)cc43)n(C3CC3)c2cc1F ; wanted: its pIC50
Response: 5.00 to 6.00

----------
Listing: IC50 of selected compounds
Molecular target: recombinant human CYP11B1 (Homo sapiens)
Construct: enzyme-enriched microsomal fraction of the lysate
Assay: CYP11B1 enzyme assay with enzyme enriched microsomes, cortisol measured by LC-MS
Conditions: microsomes from V79-4 cells; 11-deoxycortisol at Km; read-out: hCYP11B1 IC50

// solved cases for IC50 follow
{"columns": ["CHEMICAL STRUCTURE", "TARGET ENTITY", "ENDPOINT LABEL", "REPORTED VALUE"],
 "data": [
  ["COc1ccc2c(c1)ncn2-c1nc2ccc(F)cc2n1C1CC1", "recombinant human CYP11B1 (Homo sapiens)", "IC50", "100 to 1000 nM"],
  ["CS(=O)(=O)Nc1ccc2c(c1)ncn2-c1nc2cc(F)c(F)cc2n1C1CC1", "recombinant human CYP11B1 (Homo sapiens)", "IC50", "> 10000 nM"],
  ["Fc1cc2nc(-n3cnc4ccccc43)n(C3CC3)c2cc1F", "recombinant human CYP11B1 (Homo sapiens)", "IC50", "100 to 1000 nM"],
  ["N#Cc1ccc2nc(-n3cnc4ccc(OC(F)F)cc43)n(C3CC3)c2c1", "recombinant human CYP11B1 (Homo sapiens)", "IC50", "1000 to 10000 nM"],
  ["Fc1cc2nc(-n3cnc4cc(C(F)F)ncc43)n(C3CC3)c2cc1F", "recombinant human CYP11B1 (Homo sapiens)", "IC50", "1000 to 10000 nM"],
  ["CS(=O)(=O)Nc1ccc2ncn(-c3nc4ccc(C#N)cc4n3C3CC3)c2c1", "recombinant human CYP11B1 (Homo sapiens)", "IC50", "> 10000 nM"]
]}

Request: Sample Fc1ccc2nc(-n3cnc4cc(C(F)(F)F)ccc43)n(C3CC3)c2c1 — what was its IC50?
Response: 100 to 1000 nM

Request: Entry under review: Fc1ccc2nc(-n3cnc4cc(OC(F)(F)F)ccc43)n(C3CC3)c2c1 . Reported IC50?
Response: 100 to 1000 nM

Request: For the compound shown here, Cc1ccc2c(c1)ncn2-c1nc2ccc(F)cc2n1C1CC1 , give the reported IC50.
Response: 100 to 1000 nM
